Every entry's value here was drawn from patent US9296728B2.

target.entity: MCT1 (Rattus norvegicus (Rat))
Sequence (P53987 whole entry): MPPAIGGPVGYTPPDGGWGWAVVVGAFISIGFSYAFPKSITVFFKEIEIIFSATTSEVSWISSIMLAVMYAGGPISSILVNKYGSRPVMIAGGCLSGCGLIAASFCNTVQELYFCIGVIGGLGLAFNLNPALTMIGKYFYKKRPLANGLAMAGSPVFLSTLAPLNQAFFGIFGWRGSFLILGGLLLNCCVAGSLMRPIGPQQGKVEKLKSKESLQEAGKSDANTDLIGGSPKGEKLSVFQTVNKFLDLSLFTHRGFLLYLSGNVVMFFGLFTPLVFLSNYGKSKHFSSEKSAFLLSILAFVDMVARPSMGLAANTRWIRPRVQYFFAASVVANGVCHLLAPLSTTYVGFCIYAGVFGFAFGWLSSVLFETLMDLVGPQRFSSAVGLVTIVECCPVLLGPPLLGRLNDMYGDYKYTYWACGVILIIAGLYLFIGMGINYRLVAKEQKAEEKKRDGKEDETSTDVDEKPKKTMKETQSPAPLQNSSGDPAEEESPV
Sequence (P26453 141-388 partner): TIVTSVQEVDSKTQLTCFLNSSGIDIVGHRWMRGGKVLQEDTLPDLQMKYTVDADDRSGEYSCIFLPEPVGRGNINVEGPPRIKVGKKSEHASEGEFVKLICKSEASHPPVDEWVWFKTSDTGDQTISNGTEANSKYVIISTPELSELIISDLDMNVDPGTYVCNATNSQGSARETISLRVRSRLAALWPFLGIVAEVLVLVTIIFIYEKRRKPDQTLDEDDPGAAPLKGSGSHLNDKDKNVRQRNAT
experiment.description: Test A. MCT1 inhibition via lactate uptake in rat brain endothelial (RBE4) cells
Format: cell-based
conditions: 14C-lactate uptake
quantity: log10 IC50 (log10 of the value in µM)

record_smiles=C=CCN(CC=C)c1ccc2cc(C(=O)O)c(=O)oc2c1 quantity="log10 IC50" experimental_result=-0.60
record_smiles=CC(C)CN(CC(C)C)c1ccc(/C=C(\C#N)C(=O)O)cc1 quantity="log10 IC50" experimental_result=-1.18
record_smiles=CCCCN(CCCC)c1ccc(/C=C(\C#N)C(=O)O)c(OC)c1 quantity="log10 IC50" experimental_result=-2.12
record_smiles=O=C(O)c1cc2ccc(N(Cc3ccc(F)cc3)Cc3ccc(F)cc3)cc2oc1=O quantity="log10 IC50" experimental_result=-0.70
record_smiles=CCCCCCN(CCCCCC)c1ccc(/C=C(\C#N)C(=O)O)cc1 quantity="log10 IC50" experimental_result=-0.02
record_smiles=O=C(O)c1cc2ccc(N3CCCC3)cc2oc1=O quantity="log10 IC50" experimental_result=-0.66
record_smiles=N#C/C(=C\c1ccc(N2CCCCC2)cc1)C(=O)O quantity="log10 IC50" experimental_result=-0.96
